- METHOD_SUMMARY: Cytotoxicity against human HL-60 cells incubated for 48 hrs by WST-8 assay
- Assay type: toxicity, cell-based
Doc: threshold 8 µg/mL (exclusive). Items with IC50 at 48 h beneath it return Yes; others return No.

See these solved cases before continuing.
[[record]]
smiles_record = "CCCCc1c([C@H](CCC(C)C)C(=O)CCCC(C)C)oc(=O)c(CCCC)c1O"
category = "No"

[[record]]
smiles_record = "CCCCc1c(O)c(CCC(C)C)c([C@H](CCCC)C(=O)CCCC(C)C)oc1=O"
category = "Yes"

[[record]]
smiles_record = "CCCCCC(=O)[C@@H](CCCC)c1oc(=O)c(CCCC)c(O)c1CCCC"
category = "No"

[[record]]
smiles_record = "CCCCc1c([C@H](CCCC)C(=O)CCCC(C)C)oc(=O)c(CCC(C)C)c1O"
category = "No"

[[record]]
smiles_record = "CCCCc1c(CCCC(C)C)oc(=O)c(CCCC)c1O"
category = "No"

[[record]]
smiles_record = "CCCCCC(=O)[C@@H](CCCC)c1oc(=O)c(CCC(C)C)c(O)c1CCCC"
category = "Yes"

[[record]]
smiles_record = "CCCCCCCc1oc(=O)c(CCCC)c(O)c1CCCC"
category = "No"

[[record]]
smiles_record = "CCCCCC(=O)[C@@H](CCC(C)C)c1oc(=O)c(CCCC)c(O)c1CCCC"
category = "No"


Is the reported IC50 at 48 h for CCCCCc1oc(=O)c(CCCC)c(O)c1CCCC strictly below 8 µg/mL? No

In the record for CCCCCC(=O)[C@@H](CCCC)c1oc(=O)c(CC(C)C)c(O)c1CCCC , is IC50 at 48 h less than 8 µg/mL? No

I wonder whether CCCCCCc1c(O)c(CCCC)c([C@H](CCCC)C(=O)CCCCC)oc1=O has IC50 at 48 h below 8 µg/mL. Can you tell? No

Strictly below 8 µg/mL: is that where IC50 at 48 h of CCCCc1c([C@H](CCCC)C(=O)CCC(C)C)oc(=O)c(CCCC)c1O sits? No

* * *

- METHOD_SUMMARY: Inhibition of metallo-beta lactamase (unknown origin) by nitrocefin method
- Set-up: species or system Bacteria
pIC50: −log10 of the molar value.
PROPERTY: pIC50

For record CCCCCC(=O)[C@@H](CCCC)c1oc(=O)c(CCC(C)C)c(O)c1CCCC the listed pIC50 is 4.97

pIC50 in this record for CCCCCC(=O)[C@@H](CCCC)c1oc(=O)c(CCCC)c(O)c1CCCC : 4.62

* * *

Form field: MIC (one value per entry).
- Test system: Staphylococcus aureus
- METHOD_SUMMARY: Antibacterial activity against methicillin sensitive Staphylococcus aureus FDA209P by CLSI protocol based assay
- Assay type: functional
The figure you give is taken to be in µg/mL; do not add the unit.

Below, each entry is followed by its recorded MIC result.
[[record]]
smiles_record = "CCCCc1c([C@H](CCCC)C(=O)CCCC(C)C)oc(=O)c(CCC(C)C)c1O"
property = "MIC"
recorded_number = 3

[[record]]
smiles_record = "CCCCCC(=O)[C@@H](CCCC)c1oc(=O)c(CCCC)c(O)c1CCCC"
property = "MIC"
recorded_number = 5


Next, consider the following compound.
Record summary for CCCCc1c([C@H](CCC(C)C)C(=O)CCCC(C)C)oc(=O)c(CCCC)c1O : reported MIC = 5
